TARGET_ENTITY: D(3) dopamine receptor (Homo sapiens, UniProt P35462)
Sequence (P35462 whole entry): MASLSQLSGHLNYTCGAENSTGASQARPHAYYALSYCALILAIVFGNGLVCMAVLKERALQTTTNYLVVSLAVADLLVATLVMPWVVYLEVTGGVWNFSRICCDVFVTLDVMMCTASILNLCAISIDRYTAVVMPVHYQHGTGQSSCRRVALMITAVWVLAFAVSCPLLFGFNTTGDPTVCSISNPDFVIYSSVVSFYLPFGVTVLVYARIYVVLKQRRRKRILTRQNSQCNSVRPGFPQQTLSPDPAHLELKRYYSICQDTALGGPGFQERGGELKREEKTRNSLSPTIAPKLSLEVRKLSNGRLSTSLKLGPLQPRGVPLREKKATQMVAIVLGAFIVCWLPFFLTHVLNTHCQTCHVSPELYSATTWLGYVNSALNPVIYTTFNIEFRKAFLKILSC
METHOD_DESCRIPTION: Antagonist activity against D3R in human U2OS cells assessed as inhibition of (+)-PD128907-induced beta-arrestin translocation by beta-galactosidase based beta-arrestin recruitment assay
pIC50: −log10 of the molar value.
QUANTITY: pIC50

Examples from the recorded data:
CC(C)(C)c1nc(N2CCN(CCCCNC(=O)c3cn4ccccc4n3)CC2)cc(C(F)(F)F)n1 9.22
CC(C)(C)c1nc(N2CCN(CCCCNC(=O)c3cn4cccnc4n3)CC2)cc(C(F)(F)F)n1 9.40
CN(C)Cc1c(C(=O)NCCCCN2CCN(c3cc(C(F)(F)F)nc(C(C)(C)C)n3)CC2)[nH]c2ccccc12 7.85
O=C(NCCCCN1CCN(c2cccc(Cl)c2Cl)CC1)c1cn2ccccc2n1 9.70

a: O=C(NCCCCN1CCN(c2ncnc3ccccc23)CC1)c1cn2ccccc2n1
b: CC(C)(C)c1nc(N2CCN(CCCCNC(=O)c3nc4ccccc4[nH]3)CC2)cc(C(F)(F)F)n1
Problem: Name the one with the greater pIC50 value, either a or b as given. Use the label to indicate which entry you chose.
Solution: b
(b: 8.07, a: 6.39)

* * *

TARGET_ENTITY: D(3) dopamine receptor (Homo sapiens)
METHOD_DESCRIPTION: Antagonist activity against D3R in human U2OS cells assessed as inhibition of (+)-PD128907-induced beta-arrestin translocation by beta-galactosidase based beta-arrestin recruitment assay
pIC50: −log10 of the molar value.
QUANTITY: pIC50

CC(C)(C)c1nc(N2CCN(CCCCNC(=O)c3cn4ccncc4n3)CC2)cc(C(F)(F)F)n1 9.52

A: O=C(NCCCCN1CCN(c2ccnc3ccccc23)CC1)c1cn2ccccc2n1
B: CC(C)(C)c1nc(N2CCN(CCCCNC(=O)c3cc4ccccc4[nH]3)CC2)cc(C(F)(F)F)n1
C: O=C(NCCCCN1CCN(c2cccc(C(F)(F)F)c2)CC1)c1cn2ccccc2n1
D: COc1ccccc1N1CCN(CCCCNC(=O)c2cn3ccccc3n2)CC1
Problem: Order the entries by their reported pIC50, beginning at the minimum. // list labels; follow requested order
Solution: A, B, C, D
(A: 7.28, B: 8.25, C: 8.74, D: 9.15)

* * *

Species on record: Homo sapiens
METHOD_DESCRIPTION: Selectivity index, ratio of Ki for human D2LR to Ki or human D3R
QUANTITY: Ratio Ki

O=C(NCCCCN1CCN(c2cccc(C(F)(F)F)c2)CC1)c1cn2ccccc2n1 56

P: CC(C)(C)c1nc(N2CCN(CCCCNC(=O)c3nc4ccccc4[nH]3)CC2)cc(C(F)(F)F)n1
Q: Cc1nc(N2CCN(CCCCNC(=O)c3cn4ccccc4n3)CC2)cc(C(F)(F)F)n1
R: O=C(NCCCCN1CCN(c2cccc(Cl)c2Cl)CC1)c1cn2ccccc2n1
S: O=C(NCCCCN1CCN(c2ccccc2)CC1)c1cn2ccccc2n1
Problem: Rank ascending by Ratio Ki. # format: label list in the order the request specifies
Solution: Q, S, R, P

* * *

Species on record: Homo sapiens
METHOD_DESCRIPTION: Selectivity index, ratio of IC50 for human D2LR to IC50 for human D3R by beta-galactosidase based beta-arrestin recruitment assay
QUANTITY: Ratio IC50

CC(C)(C)c1nc(N2CCN(CCCCNC(=O)c3cn4cccnc4n3)CC2)cc(C(F)(F)F)n1 93
CC(C)(C)c1nc(N2CCN(CCCCNC(=O)c3cn4ccncc4n3)CC2)cc(C(F)(F)F)n1 163
O=C(NCCCCN1CCN(c2cccc(C(F)(F)F)c2)CC1)c1cn2ccccc2n1 33
COc1ccccc1N1CCN(CCCCNC(=O)c2cn3ccccc3n2)CC1 9.4

a: O=C(NCCCCN1CCN(c2cccc(Cl)c2Cl)CC1)c1cn2ccccc2n1
b: O=C(NCCCCN1CCN(c2ccnc3ccccc23)CC1)c1cn2ccccc2n1
Problem: Param pair: a , b . Output: the one whose Ratio IC50 is numerically greater. Write down the label of the entry you select.
Solution: a
